- Tested on: myeloid leukemia patient primary cells Pat.7
- assay-explanation: cell viability (% survival relative to DMSO control); higher = less cytotoxic
- condition-notes: 100 nM; 72 h
measurement-name: cell viability (%)
Please state the figure in %; there is no need to write the unit.

# return recorded cell viability for input `CCN(CC)CCN(Cc1ccc(-c2ccc(C(F)(F)F)cc2)cc1)C(=O)Cn1c(SCc2ccc(F)cc2)nc(=O)c2c1CCC2` 40.1

Read off the recorded cell viability for `C[C@H]1O[C@@H](O[C@H]2[C@@H](O)C[C@H](O[C@H]3[C@@H](O)C[C@H](O[C@H]4CC[C@@]5(C)[C@H](CC[C@@H]6[C@@H]5C[C@@H](O)[C@]5(C)[C@@H](C7=CC(=O)OC7)CC[C@]65O)C4)O[C@@H]3C)O[C@@H]2C)C[C@H](O)[C@@H]1O` 69

// Input: `Cc1noc2c1-c1ccccc1C(c1ccc(Cl)cc1)=N[C@H]2CC(N)=O` . Output its cell viability only. 84.1
